Data provenance is the RepoRT retention time repository (doi:10.1016/j.talanta.2015.03.003).

Give measured log10 LC retention time for each item. Keep answers brief.
# assay-info: RP, Merck Supelco Ascentis Express C18, 150 × 2.1 mm, 2.7 µm, 55 °C, 0.26 mL/min, estimated dead time 1.3 min; A: 60% water + 40% acetonitrile + 0.1% formic acid + 10 mM ammonium formate; B: 10% acetonitrile + 90% isopropanol + 0.1% formic acid + 10 mM ammonium formate; gradient (min/%B) 0/32 1.5/32 4/45 5/52 8/58 11/66 14/70 18/75 21/97 25/97 25.1/32 30/32
# test-conditions: stereoisomer not certain
Base-10 log of LC retention time, unit min.

**Query** Query (compound): CCCCCC=CCC=CCCCCCCCC(=O)OCC(COP(=O)(O)OCC[N+](C)(C)C)OC(=O)CCCCCCCC=CCC=CCCCCC (stereo not drawn) [1,2dilinoleoyl_PC] ; field requested: log10 LC retention time
**Result** 1.17

**Query** One more compound: CCCCCCC=CCCCCCCCC(=O)OCC(COC(=O)CCCCCCCC=CCCCCCC)OC(=O)CCCCCCCC=CCCCCCC (stereo not drawn) [glyceryltripalmitoleate]
**Result** 1.38

**Query** CCCCCCCCCCCCCCCC(=O)O [palmitic_acid] ?
**Result** 1.00

**Query** Here is the next compound: C=C(C)C1CCC2(C)CCC3(C)C(CCC4C5(C)CCC(O)C(C)(C)C5CCC43C)C12 (stereo not drawn) [lupeol]
**Result** 1.18

**Query** Same for CC(=O)C1CCC2C3CCC4=CC(=O)CCC4(C)C3CCC12C (stereo not drawn) [Progesterone]
**Result** 0.43

**Query** Next compound: CC(C)C(C)C=CC(C)C1CCC2C3CC=C4CC(O)CCC4(C)C3CCC12C (stereo not drawn) [brassicasterol]
**Result** 1.18

**Query** What do we get for CCCCCCCC/C=C\CCCCCCCCCC(=O)O [cis-11-eicosenoic acid] ?
**Result** 1.09

**Query** CC(C)CCCC(C)C1CCC2C3CCC4CC(O)CCC4(C)C3CCC12C (stereo not drawn) [Cholestanol] , same question.
**Result** 1.05

**Query** For CCC=CCC=CCC=CCCCCCCCC(=O)O [linolenic acid] then?
**Result** 0.89

**Query** Cool, now CC(CCC(=O)O)C1CCC2C3CC(O)C4CC(O)CCC4(C)C3CCC12C (stereo not drawn) [HDCA]
**Result** 0.32

**Query** Let us now turn to CCCCCCCCC=CCCCCCCCC(=O)OCC(COP(=O)([O-])OCC[N+](C)(C)C)OC(=O)CCCCCCCC=CCCCCCCCC (stereo not drawn) [1,2dioleoyl_PC]
**Result** 1.23

**Query** Also, CCCCCCC=CCCCCCCCC(=O)O [palmitoleic_acid] please.
**Result** 0.92

**Query** Same lookup for CCCCC=CCCCCCCCC(=O)O [MiristoleicAcid] , please.
**Result** 0.82

**Query** Entry to check: CCCCCCCCC=CCCCCCCCC(=O)OC(CC(=O)[O-])C[N+](C)(C)C (stereo not drawn) [Oleoyl-CAR]
**Result** 0.76

**Query** Repeat with CC1CCC2(CO)CCC3(C)C(=CCC4C5(C)CCC(O)C(C)(C)C5CCC43C)C2C1C (stereo not drawn) [uvaol]
**Result** 0.88

**Query** Now give it for CCCCCCCCCCCCCCCC(=O)OCC(COC(=O)CCCCCCCCCCCCCCC)OC(=O)CCCCCCCCCCCCCCC [glyceryltripalmitate] too.
**Result** 1.38

**Query** Also need CCCCCCCCCCCCCC=CC(O)C(N)CO [D-sphingosine] , thanks.
**Result** 0.63

**Query** Request: CC(CCC(=O)NCC(=O)O)C1CCC2C3CCC4CC(O)CCC4(C)C3CCC12C (stereo not drawn) [G-LCA]
**Result** 0.46

**Query** Param item: CCCCCC=CCC=CCCCCCCCC(=O)OCC(COC(=O)CCCCCCCC=CCC=CCCCCC)OC(=O)CCCCCCCC=CCC=CCCCCC (stereo not drawn) [Glyceryltrilinoleate]
**Result** 1.37

**Query** Could you do the same for CCCCCCCCCCCCCCCC(=O)OCC(O)COP(=O)([O-])OCC[N+](C)(C)C (stereo not drawn) [1-palmitoyl-sn-glycero-3PC] , please?
**Result** 0.77

**Query** Again, but for CC(CCC(=O)O)C1CCC2C3CCC4CC(O)CCC4(C)C3CC(O)C12C (stereo not drawn) [DCA]
**Result** 0.54

**Query** How about CC(C)=CCCC(C)C1CCC2C3CC=C4CC(O)CCC4(C)C3CCC12C (stereo not drawn) [desmosterol] ?
**Result** 1.14

**Query** Please do the same for CCC(CCC(C)C1CCC2C3CC=C4CC(O)CCC4(C)C3CCC12C)C(C)C (stereo not drawn) [BSitosterol] as well.
**Result** 1.22

====

# assay-info: RP, Merck Supelco Ascentis Express C18, 150 × 2.1 mm, 2.7 µm, 55 °C, 0.26 mL/min, estimated dead time 1.3 min; A: 60% water + 40% acetonitrile + 0.1% formic acid + 10 mM ammonium formate; B: 10% acetonitrile + 90% isopropanol + 0.1% formic acid + 10 mM ammonium formate; gradient (min/%B) 0/32 1.5/32 4/45 5/52 8/58 11/66 14/70 18/75 21/97 25/97 25.1/32 30/32
# test-conditions: stereoisomer not certain
Consider the following compounds; for each one, report its LC retention time.
Note: a bare number is incomplete; add the unit.

**Query** What does the data say about its LC retention time? Entry: CCC(C=CC(C)C1CCC2C3CC=C4CC(O)CCC4(C)C3CCC12C)C(C)C (stereo unspecified)
**Result** 16 min

**Query** Let us now turn to CCCCCC=CCC=CCCCCCCCC(=O)OCC(O)CO (racemic)
**Result** 7.6 min

**Query** Next compound up: CCCCCCCCC=CCCCCCCCC(=O)OCC(O)CO (stereo unspecified)
**Result** 8.8 min

**Query** Same for CC(CCC(=O)O)C1CCC2C3C(O)CC4CC(O)CCC4(C)C3CC(O)C12C (stereo unspecified)
**Result** 2.2 min

**Query** Then what about the compound CCCCC/C=C\C/C=C\CCCCCCCC(=O)O ?
**Result** 8.9 min

**Query** Quick one: CC(C)C(C)CCC(C)C1CCC2C3CC=C4CC(O)CCC4(C)C3CCC12C (stereo unspecified)
**Result** 16 min

**Query** And then CCC(CCC(C)C1CCC2C3CC=C4CC(OC5OC(CO)C(O)C(O)C5O)CCC4(C)C3CCC12C)C(C)C (stereo unspecified) [betaSitosterolglucoside] , what is it?
**Result** 12.6 min

**Query** Queued: CCCCCCCCC=CCCCCCCCC(=O)OCC(COP(=O)(O)OCC(O)CO)OC(=O)CCCCCCCC=CCCCCCCCC (stereo unspecified)
**Result** 15.7 min

**Query** Entry to check: CC(C)=CCCC(C)C1CCC2(C)C3=C(CCC12C)C1(C)CCC(O)C(C)(C)C1CC3 (stereo unspecified)
**Result** 15 min

**Query** And the next one, CCCCCCCCC=CCCCCCCCC(=O)O ?
**Result** 10.3 min

**Query** Follow-up entry: CC(C)CCCC(C)C1CCC2C3CC4OC45CC(O)CCC5(C)C3CCC12C (stereo unspecified) [Chol_Epoxide]
**Result** 12.8 min

**Query** Another compound: CC(CCC(=O)NCC(=O)O)C1CCC2C3C(O)CC4CC(O)CCC4(C)C3CC(O)C12C (stereo unspecified)
**Result** 1.6 min

**Query** Another compound: NC(CF)(C(=O)O)C(O)CCc1ccccc1 (stereo unspecified)
**Result** 2 min

**Query** Again, but for CCC=CCC=CCC=CCC=CCC=CCC=CCCC(=O)O
**Result** 8.4 min

**Query** Also need CC(CCC(=O)NCCS(=O)(=O)O)C1CCC2C3CCC4CC(O)CCC4(C)C3CC(O)C12C (stereo unspecified) , thanks.
**Result** 1.6 min

**Query** Please give the result for CCCCCCCCC=CCCCCCCCCCCCC(=O)O too.
**Result** 14 min

**Query** Continue with NC(COP(=O)(O)O)C(=O)O (stereo unspecified)
**Result** 14.9 min

**Query** Also CCCCCCCCCCCCCCCCCCCCCCCC(=O)O ?
**Result** 17.8 min

**Query** Can you handle CC(CCC(=O)NCC(=O)O)C1CCC2C3CCC4CC(O)CCC4(C)C3CC(O)C12C (stereo unspecified) next?
**Result** 2.1 min

**Query** Please give the result for CC(C)CCCC(C)C1CCC2C3CCC4CCCCC4(C)C3CCC12C (stereo unspecified) too.
**Result** 9.2 min

**Query** // repeat for CCCCCCCCCCCCCCCCC(=O)O and report
**Result** 11 min

**Query** Consider next the compound CCCCCCCCCCCCCC=CC(O)C(CO)NC(=O)CCCCCCCCCCCCCCCCC (stereo unspecified) in the same way.
**Result** 19.4 min

**Query** Follow-up entry: CC(C)C(C)C=CC(C)C1CCC2C3=CC=C4CC(O)CCC4(C)C3CCC21C (stereo unspecified)
**Result** 14.2 min

**Query** Same lookup for CCCCCCCCC=CCCCCCCCC(=O)OCC(COP(=O)(O)OCCN)OC(=O)CCCCCCCC=CCCCCCCCC (stereo unspecified) , please.
**Result** 17.4 min

**Query** Now try CCCCCCC=CCCCCCCCC(=O)OCC(O)CO (racemic) .
**Result** 7 min

**Query** // same read-out, input: CC(CCC(=O)O)C1CCC2C3C(O)C(O)C4CC(O)CCC4(C)C3CCC12C (stereo unspecified)
**Result** 1.9 min

**Query** What do you get for CCCCCCCCC=CCCCCCCCC(=O)OCC(COC(=O)CCCCCCCC=CCCCCCCCC)OC(=O)CCCCCCCC=CCCCCCCCC (stereo unspecified) [glyceryltrioleate] ?
**Result** 24.2 min

**Query** Entry to check: CCCCCCCCCCCCCCCC(=O)OC(CC(=O)[O-])C[N+](C)(C)C (stereo unspecified)
**Result** 5.4 min

**Query** Another: CC(CCC(=O)O)C1CCC2C3CCC4CC(O)CCC4(C)C3CCC12C (stereo unspecified)
**Result** 5.6 min

**Query** Note, next up: CCCCCCCCCCCCCCCCCC(=O)OCC(COC(=O)CCCCCCCCCCCCCCCCC)OC(=O)CCCCCCCCCCCCCCCCC [glyceryltristearate]
**Result** 24.9 min

**Query** CCCCCCCCCCCCCCCCCCCCCC(=O)O , same question.
**Result** 15.8 min

**Query** Next compound up: CCCCCCCCCCCCCC(=O)O
**Result** 8 min

**Query** Another compound to look at: CC(C)CCCC(C)C1CCC2C3CC=C4CC(O)CCC4(C)C3CCC12C (stereo unspecified)
**Result** 15.3 min

**Query** What would you report for CCCCCCC=CCCCCCCCCCC(=O)O [cis-vaccenic_acid] ?
**Result** 10.3 min

**Query** # repeat for CCCCCCCCCCCCCCCCCCCC(=O)O
**Result** 13.9 min

**Query** And what about the compound CCCCCCCCCCCCCCCCCC(=O)O ?
**Result** 12 min
